All values here come from patent US20250018014A1.

SYSTEM_NAME: FL_Reg1 (full-length human Regnase-1) phosphorylation by IKKβ (Homo sapiens, UniProt Q5D1E8)
Construct: made in house; host or cells: Expi293 cells
Sequence (Q5D1E8 1-599): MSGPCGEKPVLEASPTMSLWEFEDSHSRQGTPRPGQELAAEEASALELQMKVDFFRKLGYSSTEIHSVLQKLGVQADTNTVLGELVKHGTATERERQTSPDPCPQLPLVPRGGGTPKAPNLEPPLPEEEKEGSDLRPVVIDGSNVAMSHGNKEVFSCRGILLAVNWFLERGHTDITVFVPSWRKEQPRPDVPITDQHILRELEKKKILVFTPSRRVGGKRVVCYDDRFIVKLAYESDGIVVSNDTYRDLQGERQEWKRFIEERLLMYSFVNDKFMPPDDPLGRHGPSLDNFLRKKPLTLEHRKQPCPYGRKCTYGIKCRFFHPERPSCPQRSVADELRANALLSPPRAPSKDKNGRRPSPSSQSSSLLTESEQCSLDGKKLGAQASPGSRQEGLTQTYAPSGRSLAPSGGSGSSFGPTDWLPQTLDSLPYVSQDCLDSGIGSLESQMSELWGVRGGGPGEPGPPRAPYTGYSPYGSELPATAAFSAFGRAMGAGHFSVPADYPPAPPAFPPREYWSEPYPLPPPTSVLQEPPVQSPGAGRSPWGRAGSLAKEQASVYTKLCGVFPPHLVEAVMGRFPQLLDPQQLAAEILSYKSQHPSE
ASSAY_REMARKS: Regnase-1 phosphorylation inhibition by compounds (AlphaScreen), IKKβ, full-length Regnase-1
Type: biochemical
CONDITION_NOTES: Table 14; phosphorylation by IKKβ; read-out: Phosphorylation inhibition FL_Reg1, 50% inhibition concentration (IKKβ)
Residues, ends and D or L forms follow the SMILES beside them.
METRIC: IC50 (µM)
The reply should be a number in µM, with the unit left off.

Briefly, IC50 measured for CC[C@H](C)[C@@H]1NC(=O)[C@H](Cc2c[nH]c3ccccc23)NC(=O)[C@H](CCC(N)=O)NC(=O)[C@H](Cc2ccc(O)cc2)NC(=O)[C@H](C(C)C)NC(=O)[C@H](C)NC(=O)[C@H](Cc2ccc(O)cc2)NC(=O)[C@H](CCCNC(=N)N)NC(=O)[C@H](C)N(C)C(=O)C[C@@H](C(=O)N2CCCC2)NC(=O)[C@@H]2CCCN2C(=O)[C@H](Cc2ccc(O)cc2)NC1=O [PP12] (HELM PEPTIDE1{[meA].R.Y.A.V.Y.Q.W.I.Y.P.D.[C1CCN([*:1])C1]}$PEPTIDE1,PEPTIDE1,1:R1-12:R3$$$V2.0) : 6.8
